Overview of reported IC50 across a group of compounds:
# Tested on: HTT mRNA
# measurement_notes: Splicing RT-qPCR assay, HTT canonical (CJ) and alternative (AJ) junction mRNA
# Type: cell-based
# cond: Homo sapiens, decrease in CJ mRNA, A673 or K562 cells, 24 hours treatment
parameter: IC50

- Cc1cn2cc(-n3cnc4nc(N5CCN(C)CC5)sc4c3=O)cc(F)c2n1 [Compound 228]: 1000 to 10000 nM
- Cc1cn2cc(-c3cc4ncn(C5CCNC5)c(=O)c4s3)cc(F)c2n1 (stereo not shown) [Compound 270]: 100 to 1000 nM
- Cc1cn2cc(-c3cc(=O)n4nc(N5CCNC6(CC6)C5)sc4n3)cc(F)c2n1 [Compound 209]: 1000 to 10000 nM
- Cc1cn2cc(-c3cc(=O)n4cc(N5CCNC6(CC6)C5)sc4n3)cc(F)c2n1 [Compound 207]: > 10000 nM

---

# System: HTT mRNA
# measurement_notes: Splicing RT-qPCR assay, HTT canonical (CJ) and alternative (AJ) junction mRNA
# Format: cell-based
# cond: Homo sapiens, decrease in CJ mRNA, A673 or K562 cells, 24 hours treatment
Structures can show the parent of a compound that is named as a salt.
parameter: IC50

• Cc1cn2cc(-c3nn4c(=O)cc(N5CCN(C)C6(CC6)C5)nc4s3)cc(F)c2n1 = 1000 to 10000 nM
• Cc1cn2cc(-c3nn4c(=O)cc(N5CCNCC5)nc4s3)cc(F)c2n1 = 1000 to 10000 nM
• Cc1cn2cc(-n3ccc4cc(C5CCNCC5)sc4c3=O)cc(F)c2n1 = > 10000 nM
• Cc1cn2cc(-c3cc4ncn([C@H]5CCNC[C@H]5F)c(=O)c4s3)cc(F)c2n1 (relative stereo) = 100 to 1000 nM
• COc1cc(-c2cc3ncn(C4CCNCC4)c(=O)c3s2)ccn1 = 1000 to 10000 nM
• Cc1cn2nc(-c3cn4c(=O)cc(N5CCNC6(CC6)C5)nc4s3)cc(C)c2n1 = 1000 to 10000 nM
• Cc1cn2cc(-c3cc4ncn(C5CCNCC5(F)F)c(=O)c4s3)cc(F)c2n1 (centres unmarked) = > 10000 nM
• Cc1cc(-c2cc3ccn(C4CCNCC4)c(=O)c3s2)cc2cn(C)nc12 = 100 to 1000 nM
• COc1cc(-c2cc3ncn(C4CCNCC4)c(=O)c3s2)cnn1 = 1000 to 10000 nM
• Cc1cn2cc(-c3nc4sc(C5CCN(C)CC5)cc4c(=O)[nH]3)cc(F)c2n1 = > 10000 nM
• Cc1cn2cc(-c3cc4ncn([C@H]5CCN[C@H](C)C5)c(=O)c4s3)cc(F)c2n1 (relative stereo) = 100 to 1000 nM
• Cc1cn2cc(-c3cn4c(=O)cc(N5CCN(C)CC5)nc4s3)cc(F)c2n1 = > 10000 nM
• Cc1cn2cc(-c3cc4ccn(C5CCNCC5)c(=O)c4s3)cc(F)c2n1 = 100 to 1000 nM
• Cc1cn2cc(N3CCc4cc(C5CCNCC5)sc4C3=O)cc(F)c2n1 = > 10000 nM
• Cn1cc2cc(-c3nc4ncn(C5CCNCC5)c(=O)c4s3)c(O)cc2n1 [Compound 253, hydrochloride] = 1000 to 10000 nM
• Cc1cc(-c2cc(=O)n3cc(N4CCN(C)CC4)sc3n2)cc2cn(C)nc12 = > 10000 nM
• Cc1cn2cc(-c3cc4ncn([C@H]5CCNC[C@@H]5F)c(=O)c4s3)cc(F)c2n1 (relative stereo) = 1000 to 10000 nM

---

# measurement_notes: Cell Titer Glo 2.0 cell viability assay
# cond: human, K562 cells
Overview of reported GI50 at 72 h across a group of compounds:
parameter: GI50 at 72 h

• Cc1cn2nc(-c3cc4ccn(C5CCN(C)CC5)c(=O)c4s3)cc(C)c2n1 [Compound 809] = 1000 to 10000 nM
• Cc1cn2cc(-n3cnc4nc(N5CCN(C)CC5)sc4c3=O)cc(C(F)(F)F)c2n1 [Compound 230] = > 10000 nM
• Cc1cn2cc(-c3cc4ncn([C@H]5CCN[C@H](C)C5)c(=O)c4s3)cc(F)c2n1 (relative stereo) [Compound 277] = 100 to 1000 nM
• Cc1cc(-c2cc3ncn(C4CCNCC4)c(=O)c3s2)cc2cn(C)nc12 [Compound 236] = 100 to 1000 nM
• Cc1cn2cc(-c3cc4ncn(N5CCNCC5)c(=O)c4s3)cc(F)c2n1 [Compound 269] = 100 to 1000 nM
• Cc1cn2cc(-n3ccc4cc(C5CCNCC5)sc4c3=O)cc(F)c2n1 [Compound 801] = > 10000 nM
• Cc1cc(-c2cc(=O)n3nc(N4CCN(C)CC4)sc3n2)cc2cn(C)nc12 [Compound 157] = > 10000 nM
• COc1c(-c2nc3ncn(C4CCNCC4)c(=O)c3s2)cc2cn(C)nc2c1C [Compound 335] = > 10000 nM

---

# System: SMN2 CJ mRNA
# measurement_notes: Gene panel canonical junction qPCR assay, SMN2
# Format: cell-based
# cond: Homo sapiens, larger gene panel, read-out: SMN2 IC50 (decrease in CJ mRNA levels)
# Experimental: Compounds described herein were used to modulate RNA transcript abundance in cells. The expression of a target mRNA was measured by detecting the formation of an exon-exon junction in the canonical transcript (CJ). A compound mediated exon-inclusion event was detected by observing an increase in formation of a new junction with an alternative exon (AJ). Real-time qPCR assays were used to detect these splicing switches and interrogate the potency of various compounds towards different target genes. […]
pIC50: −log10 of the molar value. Where a name gives a salt, the structure may show the parent alone.
Overview of reported pIC50 across a group of compounds:
parameter: pIC50

- Cn1cc2cc(-c3cc4ncn(C5CCNCC5)c(=O)c4s3)cc(F)c2n1: 5.00 to 6.00
- Cc1cn2cc(-c3nn4c(=O)cc(N5CCNC6(CC6)C5)nc4s3)cc(F)c2n1: 5.00 to 6.00
- Cc1cn2cc(-c3cc4ncn(C5=CCNCC5)c(=O)c4s3)cc(F)c2n1: > 7.00
- Cc1cn2cc(-c3cc(=O)n4nc(N5CCNC6(CC6)C5)sc4n3)cc(F)c2n1: 5.00 to 6.00
- Cc1cc(-c2nc3ncn(C4CCN(C)CC4)c(=O)c3s2)cc2cn(C)nc12: > 7.00
- Cc1cn2cc(-c3cc4ncn([C@H]5CCNC[C@H]5F)c(=O)c4s3)cc(F)c2n1 (relative stereo): 6.00 to 7.00
- Cc1cn2cc(-c3cc4ncn([C@H]5CCN[C@H](C)C5)c(=O)c4s3)cc(F)c2n1 (relative stereo): > 7.00
- Cc1cn2cc(-c3nn4c(=O)cc(N5CCN(C)C6(CC6)C5)nc4s3)cc(F)c2n1: 5.00 to 6.00
- Cc1cn2cc(-c3cc4ccn(C5CCNCC5)c(=O)c4s3)cc(F)c2n1: 6.00 to 7.00
- Cc1cc(-c2cc(=O)n3nc(N4CCN(C)CC4)sc3n2)cc2cn(C)nc12: < 5.00
- Cc1cn2nc(-c3cc4ncn(C5CCN(C)CC5)c(=O)c4s3)cc(C)c2n1: > 7.00
- Cc1cn2cc(-c3nc4sc(C5CCNCC5)cc4c(=O)[nH]3)cc(F)c2n1: 6.00 to 7.00
- Cc1cn2cc(-c3cc4ncn(C5CCNCC5(F)F)c(=O)c4s3)cc(F)c2n1 (stereo not drawn): 5.00 to 6.00
- CN1CCN(c2nc3ncn(-c4ccc5nn(C)cc5c4)c(=O)c3s2)CC1: 5.00 to 6.00
- Cc1nc(-c2cc3ncn(C4CCNCC4)c(=O)c3s2)cc2cn(C)nc12: > 7.00
- Cc1cn2nc(-c3cc4ncn(C5CCNCC5)c(=O)c4s3)cc2c(C)n1: 6.00 to 7.00
- Cc1cn2cc(-c3nn4c(=O)cc(N5CCNCC5)nc4s3)cc(F)c2n1: 6.00 to 7.00
- Cc1cn2cc(-c3cc(=O)n4cc(N5CCNC6(CC6)C5)sc4n3)cc(F)c2n1: 6.00 to 7.00
- Cc1cn2cc(-c3cc4ncn(C5CCNCC5)c(=O)c4s3)cc(F)c2n1: > 7.00
- Cc1cn2cc(-n3ccc4cc(C5CCNCC5)sc4c3=O)cc(F)c2n1: < 5.00
- Cn1cc2cc(-c3cc4ncn(C5CCNCC5)c(=O)c4s3)c(F)cc2n1: > 7.00
- Cc1nc(-c2nc3ncn(C4CCNCC4)c(=O)c3s2)cc2cn(C)nc12: 6.00 to 7.00
- Cc1cc(-c2cc3ccn(C4CCN(C)CC4)c(=O)c3s2)cc2cn(C)nc12: > 7.00
- Cc1cn2nc(-c3cc(=O)n4cc(N5CCNC6(CC6)C5)sc4n3)cc(C)c2n1: 6.00 to 7.00
- Cc1cn2cc(N3CCc4cc(C5CCNCC5)sc4C3=O)cc(F)c2n1: < 5.00
- Cc1cn2cc(-n3cnc4nc(N(C)C5CC(C)(C)NC(C)(C)C5)sc4c3=O)cc(F)c2n1 [Compound 227, formate]: < 5.00
- Cc1cn2cc(-n3cnc4nc(N5CCN(C)CC5)sc4c3=O)cc(F)c2n1: 5.00 to 6.00
- Cc1cn2cc(-n3cnc4nc(N5CCNCC5)sc4c3=O)cc(F)c2n1: 6.00 to 7.00
- Cn1cc2cc(-c3cc4ncn(C5CCNCC5)c(=O)c4s3)cc(C#N)c2n1: > 7.00
- Cc1cn2cc(-c3cn4c(=O)cc(N5CCNC6(CC6)C5)nc4s3)cc(F)c2n1: 5.00 to 6.00
- Cc1nc(-c2nc3cnn(C4CCNCC4)c(=O)c3s2)cc2cn(C)nc12: 6.00 to 7.00
- Cc1cc(-c2cc3ncn(C4CCN(C)CC4)c(=O)c3s2)cc2cn(C)nc12: > 7.00
- Cc1cn2cc(-c3cn4c(=O)cc(N5CCN(C)CC5)nc4s3)cc(F)c2n1: 5.00 to 6.00

Source: patent US20240366612A1
